- Test system: LOX IMVI melanoma
- measurement.protocol: NCI-60 one-dose screen, 48 h
- test.conditions: 10 µM unless noted
This is part of a sample that, as a whole, favours compounds with a hit. Of some 83,000 tested, about 20% had one in any assay. Activity calls are given as the source filed them. The calls were made as follows: active = growth percent below 10; inactive = the rest.
Could you please pick one outcome from this set? active, inactive

Known results for molecules:
1) CC/C=C\C[C@H]1CC=C2C(=O)C=C[C@@H]2CC=CCCCC(=O)O[C@@H](CCCCC)CC=C2C(=O)C=C[C@@H]2CC=CCCCC(=O)O[C@@H](CCCCC)CC=C2C(=O)C=C[C@@H]2CC=CCCCC(=O)O[C@@H](CCCCC)CC=C2C(=O)C=C[C@@H]2CC=CCCCC(=O)O1: active
2) Cc1ccc(N(CC(=O)Nc2ccc(S(=O)(=O)NC3CCN(C)CC3)cc2)S(=O)(=O)c2ccc(Cl)cc2)cc1: active
3) Cc1cc(C)c(NC(=O)c2sc3nc4c(cc3c2N)CCCC4)c(C)c1: inactive
4) COc1ccc2c(c1)c(-c1nc(-c3c[nH]c4ncccc34)cs1)cn2CCNC(=O)OC(C)(C)C: inactive
5) C[C@H]1OC(=O)/C=C/[C@@H](O)[C@@H](O)CCCCCCCC[C@@H]1O: inactive
6) Cn1cc(-c2csc(-c3cn(CCN)c4ccc(F)cc34)n2)c2cccnc21: inactive

Challenge: What did the test return for C/C(=N\Nc1cc(C)c2ccccc2n1)c1ccccn1 ?
Response given: active

Challenge: Could you kindly confirm the outcome this assay logged for Cn1c(=O)c2c(ncn2CC(=O)Nc2ccc(S(N)(=O)=O)cc2)n(C)c1=O ?
Response given: inactive

Challenge: What was the test verdict on COc1cc2c(cc1-c1c(C)noc1C)ncc1nc(C3CCC(F)(F)CC3)n([C@@H](C)COC(F)F)c12 ?
Response given: inactive

Challenge: Could you check what this test reported for C[Si](C)(C)Cc1ccccc1 ?
Response given: inactive

Challenge: Any idea what this test logged for NC(=O)NCC1CCCCC1 ?
Response given: inactive

Challenge: Assay result, entry C/C(=N\Nc1cc(C)c2cc(C)ccc2n1)c1ccccn1 — outcome?
Response given: active

Challenge: Lab log entry: C=C1C(=O)O[C@H]2[C@H]1CC/C(Cn1cc(-c3ccc(OC)cc3)nn1)=C\CC[C@@]1(C)O[C@@H]21 — outcome as called in the assay?
Response given: active

Challenge: How was O=C1C=C(C(O)c2ccc(O)cc2)C(=O)c2ccccc21 (configuration not stated) classified in this test?
Response given: inactive

Challenge: Check the results log: what was the call for N#CC1c2ccccc2-c2ccccc2N1C(=O)c1ccccc1 (configuration not stated) ?
Response given: inactive

Challenge: Given COC(=O)[C@]12CC[C@@H](C)[C@H](C)[C@@H]1C1=CC[C@@H]3[C@@]4(C)C=C(O)C(=O)C(C)=C4CC[C@@]3(C)[C@]1(C)CC2 , state the outcome it received in this test.
Response given: inactive

Challenge: Kindly provide the recorded test outcome for the following molecule: N#Cc1cnc2cc(OC[C@@H](O)CO)c(NC(=O)C3CCCC3)cc2c1Nc1ccc(OCc2cccc(F)c2)c(Cl)c1
Response given: active

Challenge: Recorded call for NCCn1cc(-c2nc(-c3c[nH]c4ncccc34)cs2)c2ccccc21 ?
Response given: inactive

Challenge: Returns: the outcome recorded for Cc1cccc(C)c1NC(=O)CSC(=S)N1CCCCC1 in this assay.
Response given: inactive

Challenge: Could you please tell me the result logged for Cc1cc(C=O)c(C)c2c1[nH]c1ccccc12 in this assay?
Response given: inactive

Challenge: Tell me the assay call for O=c1[nH]c2c3ccncc3cc(-c3cccc(Cl)c3)c2c2cnccc12 please.
Response given: inactive

Challenge: Hi, sorry to bother you, what did the test record for COc1ccc(/C(=C\c2ccc3c(c2)OCO3)C(=O)Nc2nc3ccccc3s2)cc1OC ?
Response given: inactive

Challenge: Which outcome did this test record for the molecule N#CC1=C(N)Oc2c(sc3c(F)cccc23)C1c1ccc(Cl)cc1 (configuration not stated) ?
Response given: inactive

Challenge: Dear all, I need the recorded test outcome for CC(C)(C)CC(C)(C)c1ccc(OCCOCC[N+](C)(C)CC(=O)[O-])cc1 , thank you.
Response given: inactive

Challenge: I'd appreciate the recorded outcome for COC(=O)[C@]12CC[C@@H](C)[C@H](C)[C@@H]1C1=CC[C@@H]3[C@@]4(C)C[C@@H](OC(C)=O)[C@H](OC(C)=O)[C@@](C)(COC(C)=O)[C@@H]4[C@H](O)C[C@@]3(C)[C@]1(C)CC2 from this test.
Response given: active

Challenge: Hello, I am checking results. What call was entered for COc1ccc2[nH]c(-c3ccc(Cl)cc3)cc(=O)c2c1 ?
Response given: inactive

Challenge: Short answer needed: outcome of this test for COC(=O)[C@]12CC[C@@H](C)[C@H](C)[C@@H]1C1=CC(=O)[C@@H]3[C@@]4(C)C[C@@H](O)[C@H](O)[C@@]5(C)COC(=C45)C[C@@]3(C)[C@]1(C)CC2 ?
Response given: inactive

Challenge: State the result this test recorded for CN(C)c1ccc(N=C2C=CC(=O)C=C2)cc1 .
Response given: inactive

###

- System: SW-620 colon
- measurement.protocol: NCI-60 one-dose screen, 48 h (100 = growth as untreated, 0 = no growth, -100 = all killed)
- test.conditions: 10 µM unless noted
Compounds without any hit were thinned out: in the full panel of roughly 83,000, 20% have a hit.
Each record here notes measured growth.
The response must be a number in % with no trailing unit.

1) CC(C)(C)c1nc(-c2ccc(O)c(O)c2)cs1: 28.6
2) CC[C@H](CC[C@@H](C)[C@H]1CC[C@H]2[C@@H]3/C(=C/c4cccnc4)C(=O)C4=CC(=O)CC[C@]4(C)[C@H]3CC[C@]12C)C(C)C: 93.7
3) N#CC1c2ccccc2-c2ccccc2N1C(=O)c1ccccc1 (centres undefined): 27.3

Now look at this one.
Challenge: What value of measured growth is listed for C#CCn1c2c(c3ccccc31)C[C@]1(C)[C@H]3CC[C@@H]4[C@@H]5C(=CCC[C@H]5C(=C)C)CC[C@@]4(C)[C@]3(C)CC[C@H]1C2(C)C ?
Response given: 98.2

###

- Tested on: HT29 colon
- measurement.protocol: NCI-60 one-dose screen, 48 h (100 = growth as untreated, 0 = no growth, -100 = all killed)
- test.conditions: 10 µM unless noted
Compounds without any hit were thinned out: in the full panel of roughly 83,000, 20% have a hit.
Please assign not satisfied whenever growth is at or above 40%, and satisfied whenever it is below.

Known results for compounds:
1) O=C(N/N=C/c1ccccc1SSc1ccccc1/C=N/NC(=O)c1ccccc1)c1ccccc1: not satisfied
2) C=COCCCCCCCCCCCCCCCCCC: not satisfied
3) Cc1cc(Cl)nc(N(CCNc2ccnc3cc(Cl)ccc23)Cc2ccco2)n1: satisfied
4) C/C(=N\NC(=O)C(C)SC(C)C(=O)N/N=C(\C)c1cccnc1)c1cccnc1 (stereo unspecified): not satisfied

With those in mind, consider the next compound.
Challenge: Check if growth falls below 40% for NCCNc1nc(-c2ccccc2)nc2nc(-c3ccccc3)oc12 .
Response given: not satisfied

###

- System: A549/ATCC NSCLC
- measurement.protocol: NCI-60 one-dose screen, 48 h (100 = growth as untreated, 0 = no growth, -100 = all killed)
- test.conditions: 10 µM unless noted
The panel holds about 83,000 compounds, 20% with a hit somewhere; the sample as a whole holds those more often.
Note to self: growth under 50% means Met, ties and anything higher get Not met.

Recorded results for 5 molecules are shown here.
1) Cc1cc(N2CCCC2)nc(N(CCNc2ccnc3cc(Cl)ccc23)Cc2ccco2)n1: Met
2) Cn1cc(-c2csc(-c3cn(CCCN4CCCCC4)c4ccc(Br)cc34)n2)c2cccnc21: Met
3) CC1(C)NC2=C(C(Nc3cccnc3)N1)C(c1ccc([N+](=O)[O-])cc1)C(C(=O)c1ccc(N=[N+]=[N-])cc1)O2 (centres undefined): Not met
4) Cc1ccc(Cc2cnc(NC(=O)/C=C/c3cccc(C)c3)s2)cc1: Met
5) Cn1c2ccccc2c2c3c(c4c5cccnc5[nH]c4c21)C(=O)N(O)C3=O: Not met

Challenge: State whether 50% exceeds growth recorded for COc1cccc2c1C(=O)c1c(O)c3c(c(O)c1C2=O)C[C@@](O)(C(=O)CO)C[C@@H]3OC1C[C@H](N)[C@H](O)[C@H](C)O1 (some centres undefined) .
Response given: Met

Challenge: Please check: growth for CCN(CC)CCCCCCNc1ccnc2cc(Cl)ccc12 , strictly under 50% or not?
Response given: Not met

Challenge: Is 50% strictly greater than the molecule's reported growth? molecule: Cc1cc(C)n(Cc2cc(C(C)(C)C)cc(C(C)(C)C)c2)c(=O)c1C#N
Response given: Not met

Challenge: is_below(growth, 50%) for COC(=O)C(Cc1ccccc1)n1cc(COc2nc(Cl)nc(Nc3ccc(Cl)cc3)n2)nn1 (centres undefined) ?
Response given: Not met
